Biological target: rat mGluR5 (Rattus norvegicus, UniProt P31424)
Construct: expressed in transfected cells; host or cells: HEK (human embryonic kidney) cells
Sequence (P31424 21-1203): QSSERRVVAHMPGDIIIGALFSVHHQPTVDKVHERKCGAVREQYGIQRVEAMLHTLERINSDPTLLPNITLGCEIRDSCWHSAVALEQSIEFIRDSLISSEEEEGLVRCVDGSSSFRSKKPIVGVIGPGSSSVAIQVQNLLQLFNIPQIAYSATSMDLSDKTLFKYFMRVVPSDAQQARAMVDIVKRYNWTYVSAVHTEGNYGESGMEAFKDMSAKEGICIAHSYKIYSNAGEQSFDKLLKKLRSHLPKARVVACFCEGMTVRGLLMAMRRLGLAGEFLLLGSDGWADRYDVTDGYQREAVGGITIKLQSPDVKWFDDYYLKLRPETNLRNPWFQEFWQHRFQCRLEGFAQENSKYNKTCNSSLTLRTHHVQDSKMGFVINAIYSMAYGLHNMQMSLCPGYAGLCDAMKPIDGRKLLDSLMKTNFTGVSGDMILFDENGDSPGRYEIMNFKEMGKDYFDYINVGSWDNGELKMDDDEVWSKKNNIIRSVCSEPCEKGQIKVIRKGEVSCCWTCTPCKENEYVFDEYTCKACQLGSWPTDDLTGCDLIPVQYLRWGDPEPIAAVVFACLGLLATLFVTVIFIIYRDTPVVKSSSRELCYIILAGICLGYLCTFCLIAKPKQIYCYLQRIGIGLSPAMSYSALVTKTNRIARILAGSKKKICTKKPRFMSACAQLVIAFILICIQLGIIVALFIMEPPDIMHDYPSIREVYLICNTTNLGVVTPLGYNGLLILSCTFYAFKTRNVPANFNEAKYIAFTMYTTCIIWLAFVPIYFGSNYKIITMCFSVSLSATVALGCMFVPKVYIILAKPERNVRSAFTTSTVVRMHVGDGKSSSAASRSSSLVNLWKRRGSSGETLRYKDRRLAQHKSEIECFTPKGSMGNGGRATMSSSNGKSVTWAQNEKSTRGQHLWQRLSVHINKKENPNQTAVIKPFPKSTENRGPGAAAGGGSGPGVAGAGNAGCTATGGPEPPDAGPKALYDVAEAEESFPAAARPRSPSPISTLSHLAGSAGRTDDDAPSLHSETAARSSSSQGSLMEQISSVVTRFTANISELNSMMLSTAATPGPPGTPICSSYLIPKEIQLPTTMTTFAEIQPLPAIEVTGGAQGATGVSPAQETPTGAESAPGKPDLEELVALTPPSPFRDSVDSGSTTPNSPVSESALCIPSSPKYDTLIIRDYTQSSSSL
Assay: Potentiation of glutamate response, calcium fluorescence (FDSS) in HEK cells transfected with rat mGluR5
Assay type: cell-based
Conditions: maximum extent of potentiation; normalized to the maximal response to agonist; in % (unit assumed)
Experimental: Human embryonic kidney (HEK) cells transfected with rat mGluR5 were plated in clear bottom assay plates for assay in a Functional Drug Screening System (FDSS). […] After establishment of a fluorescence baseline for twelve seconds, the compounds of the present invention were added to the cells, and the response in cells was measured. Five minutes later, an mGluR5 agonist (e.g., glutamate, 3,5-dihydroxyphenylglycine, or quisqualate) was added to the cells, and the response of the cells was measured. […]
REPORTED PROPERTY: mGluR5 Potentiator Max
Please state the value as a number alone, without comment.

In plain terms, O=C(CN1CCc2cc(C#Cc3ccccc3)ccc2C1=O)NC1CC1 has a documented mGluR5 Potentiator Max of 52.6

Item: O=C1c2ccc(C#Cc3ccccc3)cc2CCN1Cc1ccccc1 | mGluR5 Potentiator Max: 89.9

Entry O=C1c2ccc(C#Cc3ccccc3)cc2CCN1CCN1CCC(O)CC1 , mGluR5 Potentiator Max reported as 45.7

get_value(item= O=C1c2ccc(C#Cc3ccccc3)cc2CCN1CC1CC1 , readout=mGluR5 Potentiator Max) returns 69.4

mGluR5 Potentiator Max recorded for this compound, O=C1NCCc2cc(C#Cc3cc(F)cc(F)c3)ccc21 , is 35.6

GET /value?item= O=C1NCCc2cc(C#Cc3ccccc3C(F)(F)F)ccc21 &field=mGluR5 Potentiator Max returns 34.8

Query CCCCN1CCc2cc(C#Cc3ccccc3)ccc2C1=O yields mGluR5 Potentiator Max of 96.7

Note to self: mGluR5 Potentiator Max recorded for O=C1NCCc2cc(C#Cc3ccncc3)ccc21 was 58

COc1cccc(C#Cc2ccc3c(c2)CCNC3=O)c1 yielded mGluR5 Potentiator Max of 58.1

mGluR5 Potentiator Max in this record for O=C1NCCc2cc(C#Cc3cccc(C(F)(F)F)c3)ccc21 : 33.5

Note to self: mGluR5 Potentiator Max recorded for O=C1NCCc2cc(C#Cc3ccc(F)cc3)ccc21 was 81

Recorded result, CN1CCN(C(=O)CN2CCc3cc(C#Cc4ccccc4)ccc3C2=O)CC1 , mGluR5 Potentiator Max: 35.4

The compound listed as O=C1NCCc2cc(C#Cc3ccc(F)cc3F)ccc21 shows mGluR5 Potentiator Max equal to 58.7

For this compound ( COc1ccc(C#Cc2ccc3c(c2)CCNC3=O)cc1 ), measured mGluR5 Potentiator Max is 28.2

Form: compound = O=C(CN1CCc2cc(C#Cc3ccccc3)ccc2C1=O)N1CCOCC1 ; mGluR5 Potentiator Max = 55.4

Lookup result for CN(C)c1ccc(C#Cc2ccc3c(c2)CCNC3=O)cc1 ; measured mGluR5 Potentiator Max: 28.9

The compound listed as O=C1NCCc2cc(C#Cc3ccc(Cl)cc3)ccc21 has a reported mGluR5 Potentiator Max of 28.6

Input O=C(CN1CCc2cc(C#Cc3ccccc3)ccc2C1=O)OCc1ccccc1 . Output mGluR5 Potentiator Max: 88.4

Briefly, mGluR5 Potentiator Max measured for O=C(CN1CCc2cc(C#Cc3ccccc3)ccc2C1=O)NCC1CC1 : 53.7

For record Cc1ccccc1C#Cc1ccc2c(c1)CCNC2=O the listed mGluR5 Potentiator Max is 53.4

compound COCCNC(=O)CN1CCc2cc(C#Cc3ccccc3)ccc2C1=O , mGluR5 Potentiator Max observed: 52.3

The value of mGluR5 Potentiator Max measured for the compound O=C1NCCc2cc(C#Cc3cccc(Cl)c3)ccc21 turned out to be 67.9

Entry under test: COc1ccc(C#Cc2ccc3c(c2)CCNC3=O)c(C)c1 . Its mGluR5 Potentiator Max was 29.7

Lab note: CCCN1CCc2cc(C#Cc3ccccc3)ccc2C1=O gave mGluR5 Potentiator Max of 96.5

Form field mGluR5 Potentiator Max, entry CN1CCc2cc(C#Cc3ccccc3)ccc2C1=O : 53.4

Form field mGluR5 Potentiator Max, entry Cc1cccc(C#Cc2ccc3c(c2)CCNC3=O)c1 : 75.7
